Entries annotated with measured % of CF-301 wild-type, 48° C.
Test system: bacterial inoculum
ASSAY_SUMMARY: Thermal stability: in vitro lytic assay after 30 min heating
Format: cell-based
MEASUREMENT_PARAMETERS: 30 minutes at 48° C.
Protocol: Thermal stability was assessed by incubating the lysin polypeptides at a fixed concentration of 128 μg/mL in Tris buffer pH 8.0 for 30 minutes at various elevated temperatures (within the range of about 30° C. to 60° C.) prior to assessing activity. […] The loss of optical density was followed for 15 minute at room temperature, and the specific activity was determined based on the enzyme concentration enabling a 50% loss of optical density at 15 minutes. […]

MOLECULE	UNIT_ABBREVIATION	% of CF-301 wild-type, 48° C.
pp61: Modified PlySs2 lysin, SEQ ID NO: 4: L92W, V104S, V128T, Y137S, S198H, I206E; +246K (protein) MTTVNEALNNVRAQVGSGVSVGNGECYALASWYERMISPDATVGLGAGVGWVSGAIGDTISAKNIGSSYNWQANGWTVSTSGPFKAGQIVTWGATPGNPYGHVSIVEAVDGDRLTILEQNYGGKRYPTRNYYSAASSRQQVVHYITPPGTVAQSAPNLAGSRSYRETGTMTVTVDALNVRRAPNTSGEIVAVYKRGEHFDYDTVIEDVNGYVWVSYIGGSGKRNYVATGATKDGKRFGNAWGTFK	%	0.0
pp55: Modified PlySs2 lysin, SEQ ID NO: 3: L92W, V104S, V128T, Y137S; extra C-terminal lysine (+246K) (protein) MTTVNEALNNVRAQVGSGVSVGNGECYALASWYERMISPDATVGLGAGVGWVSGAIGDTISAKNIGSSYNWQANGWTVSTSGPFKAGQIVTWGATPGNPYGHVSIVEAVDGDRLTILEQNYGGKRYPTRNYYSAASSRQQVVHYITPPGTVAQSAPNLAGSRSYRETGTMTVTVDALNVRRAPNTSGEIVAVYKRGESFDYDTVIIDVNGYVWVSYIGGSGKRNYVATGATKDGKRFGNAWGTFK	%	36.5
pp296: Modified PlySs2 lysin, SEQ ID NO: 6: L92W, V104S, V128T, Y137S, Y164K, N184D, S198Q (protein) MTTVNEALNNVRAQVGSGVSVGNGECYALASWYERMISPDATVGLGAGVGWVSGAIGDTISAKNIGSSYNWQANGWTVSTSGPFKAGQIVTWGATPGNPYGHVSIVEAVDGDRLTILEQNYGGKRYPTRNYYSAASSRQQVVHYITPPGTVAQSAPNLAGSRSKRETGTMTVTVDALNVRRAPDTSGEIVAVYKRGEQFDYDTAIIDVNGYAWVSYIGGSGKRNYVATGATKDGKRFGNAWGTFK	%	0.0
